Taken from PubChem BioAssay (NCI).

Tested on: EKVX NSCLC
Assay: NCI tumour cell line growth inhibition, 48 h
Readout type: TGI

These recorded examples may help you get a feel for the data.
O=C(O)C(C(C(=O)O)P(=O)(O)O)P(=O)(O)O (stereo unspecified) | > 100 µM
COc1cccc2c(Nc3ccc(C(=O)O)cc3)cc(-c3ccccc3)nc12 | > 100 µM
COc1cc(C2C(C(=O)O)=C(CO)Oc3cc4c(cc32)OCO4)cc(OC)c1OC (stereo unspecified) | > 100 µM

Problem: Return TGI (reported value) for this molecule: CC(=O)Nc1cccc(C#Cc2cncnc2Nc2ccc(OCc3cccc(F)c3)c(Cl)c2)n1
Solution: > 25 µM

Problem: Return TGI (reported value) for this molecule: CN(C)c1nc(N(C)C)sc(=O)n1
Solution: > 100 µM

Problem: Return TGI (reported value) for this molecule: COC(=O)c1ccc2[nH]c(O)c(C(=Nc3ccc(N(C)C(=O)CN4CCN(C)CC4)cc3)c3ccc(OC)cc3)c2c1
Solution: 12.4 µM

###

System: HT29 colon
Test: NCI tumour cell line growth inhibition, 48 h
TGI: recorded values

N#Cc1nnc2ccccc2c1N | > 100 µM
NC(=Nc1ccc(Cl)cc1)c1ccccc1N | > 100 µM
Cc1nc2ccccn2c1NC(=O)NNC(=S)Nc1ccc(Cl)cc1 | > 100 µM
CC(C)Sc1nncc(/C(N)=N/O)n1 | > 100 µM
Nc1ccc(N)c2c1C(=O)c1ccccc1C2=O | > 100 µM
CCCCSC(=CC(=O)c1cccc(C(=O)C=C(SCCCC)SCCCC)n1)SCCCC | > 100 µM
C/C(=N/NC(=S)N1CCCCC1)c1cccc(/C(C)=N\NC(=S)N2CCCCC2)n1 | 7.22 µM

Problem: Return TGI (reported value) for this molecule: Cc1ccc2cc3c(N)c4c(C)ccc(C)c4nc3nc2c1
Solution: 12.9 µM

###

Tested on: COLO 205 colon
Test: NCI tumour cell line growth inhibition, 48 h
Readout type: TGI (µM)
State just the number; it will be interpreted in µM.

Problem: Return TGI (reported value) for this molecule: O=C(C=P(c1ccccc1)(c1ccccc1)c1ccccc1)CC(=S)CC(=O)C=P(c1ccccc1)(c1ccccc1)c1ccccc1
Solution: 3.71

Problem: Return TGI (reported value) for this molecule: CC1OC2=N[C@@H]1C(=O)N[C@@H](Cc1ccccc1)C1=N[C@H](C(=O)N[C@@H](Cc3ccccc3)C3=N[C@H](C(=O)N[C@H]2Cc2ccccc2)C(C)O3)C(C)O1 (stereo partly drawn)
Solution: 34.4

###

TGI: recorded values
Test system: KM12 colon
Assay: NCI tumour cell line growth inhibition, 48 h

CC(C)CC(N=Cc1nc(-c2ccccc2)oc1O)C(=O)O (stereo not drawn) | > 100 µM
O=C(N/N=C\c1c(O)ccc2ccccc12)c1ccncc1 | > 25 µM

Let us move to another entry and its TGI.
Problem: Return TGI (reported value) for this compound: COc1ccc([C@H]2[C@H](C)C3=Nc4ccccc4CN32)cc1
Solution: > 100 µM

###

TGI: recorded values
System: UACC-62 melanoma
Assay: NCI tumour cell line growth inhibition, 48 h

C=CC(=O)N1CC2(CCC(n3nc(-c4ccc(Oc5ccccc5)cc4)c4c(N)ncnc43)CC2)C1 | 4.85 µM
COCn1cnc2c(=O)n(-c3ccc(C)cc3)c(=S)n(-c3ccc(C)cc3)c21 | > 100 µM
CC1=C(/C=C/C(C)=C/C=C/C(C)=C/C=C/C=C(C)/C=C/C=C(C)/C=C/C=C(C)/C=C/C=C(\C)C(=O)O)C(C)(C)CCC1 | > 100 µM
CCOP(=O)(OCC)/C(C#N)=C/c1coc2cc(C)cc(C)c2c1=O | > 100 µM
O=C(NNc1cn[nH]c(=O)n1)c1cccc2nc3ccccc3nc12 | > 100 µM
COc1ccc2c3c([nH]c2c1CC=C(C)C)C(=O)C=C(C)C3=O | > 25 µM
COc1cccc2c1C(=O)C1(O)CCCCC21 (stereo unspecified) | > 100 µM
CCOC(=O)Nc1nc2cc(OC)c(OC)c(OC)c2s1 | > 100 µM

Problem: Return TGI (reported value) for this compound: CC/C(=C(\c1ccc(Cl)cc1)c1ccc(OCCN2CCCCC2)cc1)c1ccc(O)cc1
Solution: 3.25 µM

Problem: Return TGI (reported value) for this compound: Clc1ccc(-c2ccc(CNCC3CCNCC3)o2)c(-c2ccccc2)c1
Solution: 3.27 µM

Problem: Return TGI (reported value) for this compound: Cc1ccc(C2(C)CC/C(=N/N=C3/CCC(C)(c4ccc(C)c(C)c4)c4cc(C)c(C)cc43)c3cc(C)c(C)cc32)cc1C (stereo unspecified)
Solution: > 100 µM

Problem: Return TGI (reported value) for this compound: O=C1CC(c2ccccc2Cl)C2(C(=O)NC(=S)NC2=O)C(c2ccccc2Cl)C1 (stereo unspecified)
Solution: 40.8 µM

Problem: Return TGI (reported value) for this compound: CCOP(=O)(OCC)OC1c2[nH]ccc2-c2cc(C(=O)OC)[nH]c2C1OC (stereo unspecified)
Solution: > 100 µM

Problem: Return TGI (reported value) for this compound: N#CC(C#N)=c1ccc(=C2N3CCCC3CN2C23CC4CC(CC(C4)C2)C3)cc1 (stereo unspecified)
Solution: > 100 µM

Problem: Return TGI (reported value) for this compound: C/C(=N/NC(=S)N1CCCCC1)c1cccc(/C(C)=N\NC(=S)N2CCCCC2)n1
Solution: 5.54 µM

Problem: Return TGI (reported value) for this compound: C#Cc1nc(N)c2ncn(C3OC(COS(N)(=O)=O)C(O)C3O)c2n1 (stereo unspecified)
Solution: 0.369 µM

###

TGI: recorded values
Test system: SR leukemia
Assay: NCI tumour cell line growth inhibition, 48 h

These recorded examples may help you get a feel for the data.
O=C1CC(c2ccccc2Cl)C2(C(=O)NC(=S)NC2=O)C(c2ccccc2Cl)C1 (configuration not stated) | > 100 µM
COc1cc(Nc2nc3c(N)cc(C(F)(F)F)cc3nc2-c2ccccc2)cc(OC)c1OC | > 100 µM

Problem: Return TGI (reported value) for this compound: CCOC(=O)NN(C(=O)OCC)C(=C(c1ccccc1)N1CCOCC1)N(NC(=O)OCC)C(=O)OCC
Solution: > 100 µM

Problem: Return TGI (reported value) for this compound: COc1ccccc1NCc1nnc(CCCCCCCCc2nnc(CNc3ccccc3OC)o2)o1
Solution: > 100 µM

###

Tested on: RPMI-8226 leukemia
Experiment: NCI tumour cell line growth inhibition, 48 h
Readout type: TGI

Problem: Return TGI (reported value) for this molecule: O=C1OC(c2ccc(O)c(F)c2)(c2ccc(O)c(F)c2)c2cccc3cccc1c23
Solution: > 25 µM

Problem: Return TGI (reported value) for this molecule: CC(=O)Nc1ccc(C2C(C(=O)Nc3ccccc3C)=C(C)NC(C)=C2C(=O)Nc2ccccc2C)cc1
Solution: > 100 µM

Problem: Return TGI (reported value) for this molecule: CCOC(=O)C1=NC(c2ccccc2)(c2ccccc2)OC1=C(Cl)Cl
Solution: > 100 µM

Problem: Return TGI (reported value) for this molecule: COc1cc(C2C(C(=O)O)=C(CO)Oc3cc4c(cc32)OCO4)cc(OC)c1OC (centres undefined)
Solution: > 100 µM

Problem: Return TGI (reported value) for this molecule: COc1ccc2c3c([nH]c2c1CC=C(C)C)C(=O)C=C(C)C3=O
Solution: > 25 µM

###

Tested on: NCI/ADR-RES ovarian
Assay: NCI tumour cell line growth inhibition, 48 h
Where a SMILES comes first, the peptide text is derived from it. Bridges are numbered along the chain shown (N, C = ends). [ ]: non-standard residue; d: D form. The star is where a group is joined. Cya = N[CH](CS(=O)(=O)O)C(=O)O; X49 = CC(C)CCCCCCCC(O)CC(=O)*; GABA = NCCCC(=O)O
Readout type: TGI

COc1cc(/C=C2/SC(c3ccccc3)N(c3cc(Cl)ccc3Cl)C2=O)cc(OC)c1OC (stereo not drawn) | > 100 µM
CCOC(=O)c1ccc2c(c1)c1c(C)c3cnccc3c(C)c1n2C | 0.6 µM
CC(=O)N1CCN([C@H]2CCC[C@@H](NC(=O)c3cc4c(F)ccc(C)c4[nH]3)C2)CC1 | > 100 µM
O=C(CC(=O)Nc1ccc(C(=O)O)cc1)Nc1ccc(C(=O)O)cc1 | > 100 µM
Clc1ccc(-c2ccc(CNCC3CCNCC3)o2)c(-c2ccccc2)c1 | 3.3 µM
CC(=O)OC1(C)C(=O)OC/C2=C/CN(C)CCC(OC(=O)C(O)(C(C)Cl)CC1C)C2=O (stereo not drawn) | > 100 µM
CC(C)(NO)/C(=N\O)c1ccco1 | > 100 µM
CC(C)CCCCCCCC(O)CC(=O)NC(CS(=O)(=O)O)C(=O)NC(CC(C)C)C(=O)NCCCC(=O)NC(Cc1cnc[nH]1)C(=O)NC(C)C(=O)NC1C(=O)NC(C(C)O)C(=O)NC(Cc2cnc[nH]2)C(=O)NC(C)C(=O)NC(C(C)O)C(=O)OC1C (stereo not drawn) (X49-[Cya]L[GABA]HATTHAT; ester 6-C; configuration not given here) | > 25 µM

Problem: Give reported TGI for COc1cc(C(=O)/C=C/c2c(C)n([O-])c3ccc(C(F)(F)F)cc3[n+]2=O)cc(OC)c1OC (NCI/ADR-RES ovarian)
Solution: 97.7 µM

Problem: Give reported TGI for C/C(=N/NC(=S)N1CCCCC1)c1cccc(/C(C)=N\NC(=S)N2CCCCC2)n1 (NCI/ADR-RES ovarian)
Solution: 4.72 µM

Problem: Give reported TGI for O=c1c(Br)c(-c2ccccc2)[nH]c2ccccc12 (NCI/ADR-RES ovarian)
Solution: > 100 µM

Problem: Give reported TGI for Cn1cc(C2=C(c3cn(C)c4ccc(OCc5ccccc5)cc34)C(=O)NC2=O)c2ccccc21 (NCI/ADR-RES ovarian)
Solution: > 25 µM

Problem: Give reported TGI for O=C1C=C(Nc2ccc([N+](=O)[O-])cc2)c2ccccc2C1=O (NCI/ADR-RES ovarian)
Solution: 29.3 µM

Problem: Give reported TGI for CCCc1n(Cc2ccc3ccccc3c2)c2ccccc2[n+]1Cc1ccc2ccccc2c1 (NCI/ADR-RES ovarian)
Solution: 53.9 µM

Problem: Give reported TGI for CCOP(=O)(OCC)OC1c2[nH]ccc2-c2cc(C(=O)OC)[nH]c2C1OC (stereo not drawn) (NCI/ADR-RES ovarian)
Solution: > 100 µM

Problem: Give reported TGI for O=c1ccn(C2OC(CN(O)CCC3C(O)C(CO)OC3n3ccc(=O)[nH]c3=O)C(O)C2O)c(=O)[nH]1 (stereo not drawn) (NCI/ADR-RES ovarian)
Solution: > 100 µM

Problem: Give reported TGI for C/C=C1/C[C@@H](C)[C@@](C)(O)C(=O)OCC2=CC[N+]3([O-])CC[C@@H](OC1=O)[C@@H]23 (stereo partly drawn) (NCI/ADR-RES ovarian)
Solution: > 100 µM

Problem: Give reported TGI for CCOC(=O)C1=CC(C)(C(=O)OCC)Nc2c(nc(SC)[nH]c2=O)N1 (stereo not drawn) (NCI/ADR-RES ovarian)
Solution: > 10 µM
